Assign melting point to each entry below.

Known melting point results, listed for orientation:
CCCOc1ccc(F)c2c(=O)c(-c3ccccc3OC)c[nH]c12
193 to 195 °C
CCCOc1ccc(F)c2c(=O)c(-c3ccsc3C=O)c[nH]c12
190 to 191 °C
CCCOc1ccc(F)c2c(=O)c(-c3ccc(Cl)cc3Cl)c[nH]c12
256 to 259 °C
COc1ccc(-c2c[nH]c3c(OCC4CCCO4)ccc(F)c3c2=O)cc1 (stereo not drawn)
108 to 110 °C

List reported melting point for each of these molecules:
1. COc1ccc(-c2c[nH]c3c(OC4CCCC4)ccc(F)c3c2=O)cc1
2. CCCOc1ccc(F)c2c(=O)c(-c3cccnc3)c[nH]c12
3. CCCOc1ccc(F)c2c(=O)c(-c3ccsc3)c[nH]c12
4. CCCOc1ccc(F)c2c(=O)c(-c3cc(OC)ccc3OC)c[nH]c12
5. COCCN(C)c1ccc(F)c2c(=O)c(-c3ccc(OC)cc3)c[nH]c12.Cl

1. 213 to 215 °C
2. 234 to 236 °C
3. 208 to 210 °C
4. 156 to 157 °C
5. 100 to 101 °C
